pKi: −log10 of the molar value.
Measured pKi (UniProt P20309)
Sequence (P20309 whole entry): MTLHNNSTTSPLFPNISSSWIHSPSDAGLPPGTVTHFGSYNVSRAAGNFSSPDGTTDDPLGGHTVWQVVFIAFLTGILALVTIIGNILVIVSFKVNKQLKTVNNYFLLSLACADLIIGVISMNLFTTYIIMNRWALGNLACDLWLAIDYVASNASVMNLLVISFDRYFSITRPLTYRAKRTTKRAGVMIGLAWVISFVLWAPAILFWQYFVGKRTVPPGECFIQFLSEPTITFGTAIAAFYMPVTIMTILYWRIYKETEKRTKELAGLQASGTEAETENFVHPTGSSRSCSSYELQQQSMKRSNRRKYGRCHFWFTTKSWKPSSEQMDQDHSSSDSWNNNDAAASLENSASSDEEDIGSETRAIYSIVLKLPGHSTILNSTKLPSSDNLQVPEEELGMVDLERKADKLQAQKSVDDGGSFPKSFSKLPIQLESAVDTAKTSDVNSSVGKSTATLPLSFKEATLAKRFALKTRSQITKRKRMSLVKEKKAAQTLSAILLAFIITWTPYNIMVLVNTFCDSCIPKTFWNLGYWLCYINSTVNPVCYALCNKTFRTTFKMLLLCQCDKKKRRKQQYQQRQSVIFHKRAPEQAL

{"compound": "CC(C)(CCN1CCC(=C2c3ccccc3COc3ccccc32)CC1)C(=O)O [Compound 70a]", "target_entity": "UniProt P20309", "observed": "< 5.00"}

Shift focus to the following entry.
Name the recorded pKi for CC(C)(CN1CCC(=C2c3ccccc3COc3ccccc32)CC1)C(=O)O [Compound 69a] .
< 5.00

###

Target chain: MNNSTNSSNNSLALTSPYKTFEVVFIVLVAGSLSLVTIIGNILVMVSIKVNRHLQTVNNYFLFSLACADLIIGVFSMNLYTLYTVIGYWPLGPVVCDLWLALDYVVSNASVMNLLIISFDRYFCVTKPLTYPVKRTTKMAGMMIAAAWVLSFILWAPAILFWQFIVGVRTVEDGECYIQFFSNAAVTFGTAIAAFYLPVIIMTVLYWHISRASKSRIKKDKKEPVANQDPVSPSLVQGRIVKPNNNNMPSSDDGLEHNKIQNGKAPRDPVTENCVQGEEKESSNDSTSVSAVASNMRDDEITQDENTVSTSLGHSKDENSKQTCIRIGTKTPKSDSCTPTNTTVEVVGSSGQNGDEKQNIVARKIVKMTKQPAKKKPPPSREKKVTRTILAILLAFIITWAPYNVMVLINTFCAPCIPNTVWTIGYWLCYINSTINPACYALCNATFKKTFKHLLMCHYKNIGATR
endpoint: Ki

Name the recorded Ki for CC(C)(CN1CCC(=C2c3ccccc3COc3ccccc32)CC1)C(=O)O [Compound 69a] .
> 10 µM
